All values here come from paper PMC5052687.

Measured pKd of individual entries
Target: T1, human CD36 ectodomain (residues 35-439), C-terminal 8xHis and biotinylated BAP tag (human, UniProt P16671 35-439, biotin on the BAP tag (in vitro, BirA ligase))
T1 construct: CD36, human, ectodomain residues 35-439; Construct for SPR; vector pHLsec-8H; also called CD36 wild-type; w.t; source: HEK293T, purified (TALON, size-exclusion chromatography), biotinylated in vitro with BirA; not shown: BAP tag, C-terminal, kept
T1 sequence (P16671 35-439): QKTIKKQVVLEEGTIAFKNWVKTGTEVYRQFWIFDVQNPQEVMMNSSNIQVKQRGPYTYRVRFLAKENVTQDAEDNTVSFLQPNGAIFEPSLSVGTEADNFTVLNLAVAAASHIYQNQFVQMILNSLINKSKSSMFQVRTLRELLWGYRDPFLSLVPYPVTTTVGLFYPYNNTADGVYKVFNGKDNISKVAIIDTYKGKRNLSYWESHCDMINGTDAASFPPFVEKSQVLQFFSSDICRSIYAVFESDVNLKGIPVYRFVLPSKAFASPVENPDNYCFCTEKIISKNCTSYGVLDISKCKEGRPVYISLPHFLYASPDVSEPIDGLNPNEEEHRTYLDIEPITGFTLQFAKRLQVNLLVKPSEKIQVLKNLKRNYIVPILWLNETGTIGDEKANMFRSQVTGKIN
Test: SPR; biotinylated CD36 (wild type or F153A) immobilised on a CAPture chip to ~700 RU; CIDRα domains as analytes, two-fold dilutions from 400 nM (Supplementary Figure 10: 400 nM only), 240 s injection, 300 s dissociation; 25 °C, 20 mM HEPES pH 7.5, 0.15 M NaCl, 0.005% Tween20; affinities from equilibrium binding, one site-binding model
Details: both partners purified
For clarity, pKd is expressed as the negative log10 of concentration in mol/L.

[
  {
    "BINDER": "IT4var14 CIDRα5 domain (domain or fragment, CIDRα5 domain of the PfEMP1 IT4var14, Plasmodium falciparum; also called CIDRα5 IT4var14; IT4var14 (α5)) PWCGIEEQKDGKWKRINDHSACKEEELYTPKENAKYTKINVLTSGEGHEDIAKRLKEFCTKTQNGGGGSDDCGGNSDSSLCEPWQCYQPDQLEKVGGGEVDDKLKGAGGLCIFEKMKGEKKVKKQKTFNNFFNFWVAHVLKDSIDWRTQLTKCLSEDKLKKCEKGCKSNCECFKKWIEKKEKEWIKVKDQFNKQTDFLEWKHYLVLETILENYYFENIQKAYGDLKSIQEMKKMIKENKQNKNRTKDDEDALDVLFDHEKEEAEDCLDIHE",
    "pKd": 6.74
  },
  {
    "BINDER": "IT4var33 CIDRα2.4 domain (domain or fragment, CIDRα2.4 domain of the PfEMP1 IT4var33, Plasmodium falciparum; also called CIDRα2.4 IT4var33; IT4var33 (α2.4)) PLCGLGMQEPPWNPKKDTDCEDRGIKTFDDRNSTPINLLVKDVTGTSIVEKLGGLCGNGAKKNIQTWKCRFESSQNYYCVLQNDKKNTPQQEIESFNSLFWHWITEMLKDSIDWRKEHENCINNNNTCKKGCKSKCECFEKWVKRMKEEWKQVLEVYDKQPDFKEVFTPYFTLGYLLKEYFTKIKAPYEEVESVQEFIKEMEQIIDENSNNINATKENNSITKFLQHEEGIATECKKTHNEEKC",
    "pKd": 8.48
  },
  {
    "BINDER": "IT4var61 CIDRα2.7 domain (domain or fragment, CIDRα2.7 domain of the PfEMP1 IT4var61, Plasmodium falciparum; also called CIDRα2.7 IT4var61; IT4var61 (α2.7)) PWCGVKRNGGGWKAKSDGECAKEKKTYKKKNITEIPVLTPDKEKHNILQKYENFCKNSDGNNGDQIKNWQCYYEEKDESDNDGDSNICVLQNENIGKKEEKSMPYHPFFWKWVTEMLIDSMYWRKELKRCINKETKACKNGCKNNCDCYKRWVEEKKKEWGQIKTHFNTQEDMREDIGENTDPGIILAALLNIEDLFENIKDTYGDVKEIKDINQMLEKENEENEGTAGADSKKKNTIDLMINHEQKDAQKCVTNNPDKDC",
    "pKd": 7.14
  }
]

Next binder, pKd to be filled in.
response.value for HB3var13 CIDRα3.2 domain (domain or fragment, CIDRα3.2 domain of the PfEMP1 HB3var13, Plasmodium falciparum; also called CIDRα3.2 HB3var13; HB3var13 (α3.2)) PLCGVKKEKGTWVRKDSMNDCPRIKLYKPINDKVGTPINFLYSGDGQTEIAEKLKKFCRTENGSDGSSSARANGASGDKNGGSGSQELYQYWKCYQIGDLQKVREGEDDEDDGQYDQEVENAGGLCILQKTNGKENVNKQKTSHEIQKTFNPFFYYWVVHMLKDSIHWRTEKIKSCINNTNELKACKNNKKCNSDCDCFKRWVKQKGKEWGQIKVHFKTQDIRGKVVNGNTVVSFFLDHDELLEGVLDKGLLLESLQEAYGNAEDIKHIKKLLQETDVVGGGEHKTTIDFLLKEELNEAEECLKKQKDNEC (field: pKd) = 7.91
